# System: microglial BV-2 cells
# protocolSummary: Cell viability (MTT test) in BV-2 cells
# Assay type: cell-based, murine
# details: 10 µM
# Procedure: The murine BV-2 microglial cell line cultured followed the procedure of our previous reports (Hsiao et al. [2020]). In summary, BV-2 cells were cultured with DMEM containing Fetal Bovine Serum (FBS), streptomycin/penicillin, Lglutamine and HEPES at 37 °C, humidified 5% CO2. […] As in our previous report, cellular viability was assessed using MTT test where BV-2 cells, along with other compounds were treated for 24 h (Hsiao et al. [2020]).
valueKind: Cytotoxicity against microglial BV-2 cells (in words)

[[record]]
compound = "C/C=C/C=C(\\CO)C(/C=C/C)CO (stereo not drawn) [Compound 1, nigaurdiol]"
reading = "no cytotoxic activity"

[[record]]
compound = "COC1=CC(=O)c2c(O)c3c(c(O)c2C1=O)C[C@](C)(O)[C@H](O)C3 [Compound 4, deoxybostrycin]"
reading = "significant cytotoxicity"

[[record]]
compound = "COC1=CC(=O)c2c(O)c3c(c(O)c2C1=O)C[C@](C)(O)[C@H](O)[C@H]3O [Compound 3, bostrycin]"
reading = "significant cytotoxicity"

[[record]]
compound = "Cc1cc(O)c2c(c1)O[C@@]1(C)OC[C@H](C)C1C2 (stereo partly drawn) [Compound 2, xyloketal K]"
reading = "no cytotoxic activity"

[[record]]
compound = "COc1cc(O)c2c(c1O)[C@@H](O)[C@@H]1C[C@](C)(O)[C@H](O)C[C@@H]1C2=O [Compound 5, xylanthraquinone]"
reading = "no cytotoxic activity"


Data provenance: paper PMC8548483
